test: qHTS RealTime-Glo MT Cell Viability Assay in HepG2 cells - 16 hour (AID 1224885); details: RealTime-Glo luminescence; series mostly up to 76.8 µM; also: nearly all actives have a fitted effect of over 50% in size
Records with an inconclusive call do not appear. Activity calls are given as the source filed them. Calls follow the shape of the dose curve; as a rule, active = well fitted cell-killing curve with a large enough effect in the repeat runs; inconclusive = weak or mixed curves; inactive = flat fitted curve, though single readings scatter.
METRIC: activity change, negative = cytotoxic

Worked set:
COMPOUND: CCCCCCC/C=C/C=O
activity change, negative = cytotoxic: inactive

COMPOUND: S=c1[nH][nH]c(=S)s1
activity change, negative = cytotoxic: inactive

COMPOUND: CCCCCCCCC(=O)OCC(C)OC(=O)CCCCCCCC (stereo not drawn)
activity change, negative = cytotoxic: inactive

COMPOUND: CCCCOC(=O)CC#N
activity change, negative = cytotoxic: inactive

Could you please provide reported activity change, negative = cytotoxic for `Cc1ccc(NC=O)c(C)c1` ? Thanks!
inactive

Tell me activity change, negative = cytotoxic reported for `COc1ccc(/C(C)=C/C(=O)O)c(OC)c1`
inactive

Give me measured activity change, negative = cytotoxic, please, for this compound: `CCc1cnc(C(=O)O)c(C(=O)O)c1`
inactive

Could you please provide reported activity change, negative = cytotoxic for `CC1(C)CC(=O)CC(C)(C)N1` ? Thanks!
inactive

----------
assay: qHTS assay for small molecule agonists of the antioxidant response element (ARE) signaling pathway - cell viability counter screen (AID 743203); settings: ARE-bla HepG2 viability, CellTiter-Glo luminescence, 16 h; series mostly up to 73.3 µM; also: nearly all actives have a fitted effect of over 55% in size
Inconclusive results are not listed. Calls of active or inactive are those of the source. The call rests on the fitted dose curve.
Select the correct class. Options are active, inactive and nothing else.

Study these solved cases before continuing.
MOLECULE: CNc1ccccc1
CLASS LABEL: inactive
//
MOLECULE: O=C(Nc1ccccc1)c1cc([N+](=O)[O-])ccc1Cl
CLASS LABEL: inactive
//
MOLECULE: CC(C)(C)c1cc(C=O)cc(C(C)(C)C)c1O
CLASS LABEL: inactive

# lookup: test call for CCC(=O)O[C@]1(C(=O)COC)[C@@H](C)C[C@H]2[C@@H]3CCC4=CC(=O)C=C[C@]4(C)C3(F)[C@@H](O)C[C@@]21C (some centres not stated)
inactive

Query: recorded result category for `CO[C@@H]1COCC[C@@H]1N[C@@H]1CC[C@@](C(=O)N2CCc3ncc(C(F)(F)F)cc3C2)(C(C)C)C1` in this test
inactive

Record lookup: outcome of this test for `CCC(CC)C(=O)O` ?
inactive

Outcome? CC(CN=Cc1ccccc1O)N=Cc1ccccc1O (configuration not stated)
inactive

Hello, I am checking results. What call was entered for O=C1OC(=O)C2CC=CCC12 (configuration not stated) ?
inactive

Status in this test for `C=C[Si](OCC)(OCC)OCC` ?
inactive

For `COc1ccc(/C(C)=C/C(=O)O)c(OC)c1` , what call appears in the results of this test?
inactive

----------
assay: qHTS assay to identify small molecule antagonists of the sonic hedgehog signaling (Shh) pathway - cell viability counter screen (AID 1259367); conditions: NIH/3T3 Gli1-Luc viability, CellTiter-Fluor, 24 h; series mostly up to 92.4 µM; also: nearly all actives have a fitted effect of over 55% in size
Inconclusive results are not listed. Active and inactive are the calls of the source. Calls follow the shape of the dose curve; as a rule, active = well fitted cell-killing curve with a large enough effect in the repeat runs; inconclusive = weak or mixed curves, or effect the other way; inactive = no such curve, though single readings can be large or run the other way.
Entry note: the call must match one of Yes = active, No = inactive

COMPOUND: CC(C)Oc1ccccc1O
CLASS LABEL: No
--
COMPOUND: Cc1c(Cl)cccc1Nc1ccccc1C(=O)O
CLASS LABEL: No

Identify the outcome logged in this assay for the compound shown: `Cc1c(Nc2ncccc2C(=O)O)cccc1C(F)(F)F`
No

Hi, sorry to bother you, what did the test record for Clc1cccc(C(c2ccc3nc[nH]c3c2)n2ccnc2)c1 (stereo not drawn) ?
No

Give the logged outcome of this assay for the following compound: `CCOC(OCC)OCC`
No

Fill in: this test's call for `O=C(OCCN1CCOCC1)c1cccnc1Nc1cccc(C(F)(F)F)c1` is ___
No

Could you kindly confirm the outcome this assay logged for `CCOC(=O)CC(O)(CC(=O)OCC)C(=O)OCC` ?
No

Lab log entry: `CC(C)C[C@H](NC(=O)[C@H](Cc1ccccc1)NC(=O)c1cnccn1)B(O)O` — outcome as called in the assay?
Yes

// param item: `CCCCCCCCCCCCCCCCC(=O)O` ; yields the recorded call
No

For `C[C@]12CCC(=O)C=C1[C@@H]1C[C@@H]1[C@H]1[C@@H]3[C@@H]4C[C@@H]4[C@@]4(CCC(=O)O4)[C@@]3(C)CC[C@@H]12` , which call appears in the assay record?
No

# lookup: test call for `O=C(O)c1ccncc1`
No

Please share the test call associated with `COC(=O)C(C)(C)C` .
No

In this assay, the call recorded for `CC(=O)CC/C=C(\C)CC/C=C(\C)CC/C=C(\C)CCC=C(C)C` was what?
No

Which outcome was entered for the compound `CCCCCCOC(=O)c1ccccc1` in this test?
No

Could you check what this test reported for `O=C(c1ccco1)N1CCNCC1` ?
No

Status in this test for `C/C(=C(\CCO)SS/C(CCO)=C(\C)N(C=O)Cc1cnc(C)nc1N)N(C=O)Cc1cnc(C)nc1N` ?
No

Which outcome did this test record for the compound CCCCOC(=O)C(C)Oc1ccc(Oc2ccc(C(F)(F)F)cn2)cc1 (stereo not drawn) ?
No

Recorded test outcome, item Cc1ccc(Cl)c(OCC(O)CNC(C)(C)C)c1 (stereo not drawn)
No

GET /call?item= CCc1ccc(C(=O)C(C)CN2CCCCC2)cc1 (stereo not drawn) returns the recorded outcome of this test.
No

Tell me the recorded outcome of this test for `S=c1[nH][nH]c(=S)s1` .
No

State the result this test recorded for `c1ccc(CN(Cc2ccccc2)Cc2ccccc2)cc1` .
No

Could you check what this test reported for `FC(F)(Cl)C(F)(Cl)Cl` ?
No

Tell me the assay call for `Cc1ccc2c(Cl)cc(Cl)c(O)c2n1` please.
No

These data points were gathered from PubChem BioAssay (Tox21).
